What ERβ receptor activation relative to 10 nM E2 corresponding 100 was measured for each of the following?
Molecular target: ERβ (Homo sapiens)
Sequence (Q92731 whole entry): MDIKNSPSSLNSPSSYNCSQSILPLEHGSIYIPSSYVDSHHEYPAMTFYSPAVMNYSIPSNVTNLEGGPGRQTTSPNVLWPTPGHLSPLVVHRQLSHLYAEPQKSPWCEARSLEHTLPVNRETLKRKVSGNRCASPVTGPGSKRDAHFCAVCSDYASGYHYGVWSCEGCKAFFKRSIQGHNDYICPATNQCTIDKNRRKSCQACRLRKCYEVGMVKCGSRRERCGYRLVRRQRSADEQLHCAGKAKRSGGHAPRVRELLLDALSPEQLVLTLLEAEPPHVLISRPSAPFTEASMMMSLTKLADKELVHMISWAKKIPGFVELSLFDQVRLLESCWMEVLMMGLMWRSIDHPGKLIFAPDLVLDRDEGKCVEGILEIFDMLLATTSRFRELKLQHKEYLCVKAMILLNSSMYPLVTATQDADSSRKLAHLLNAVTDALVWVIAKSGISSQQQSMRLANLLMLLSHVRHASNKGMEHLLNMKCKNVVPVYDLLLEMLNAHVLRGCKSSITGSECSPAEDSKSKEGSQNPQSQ
Assay: ERβ reporter (luciferase) transactivation assay in transfected HEK293 cells
Format: cell-based
Design: expressed in transfected cells; host or cells: HEK293
Conditions: sample concentration 10 μM, 24 hours, mean of at least three independent transfections
Quick note: give the figure in %, leave out the unit.

stdin: Suppose we examine the molecule CC1(c2ccccc2)CC(CCc2ccc(O)cc2)=NO1 (single isomer, unassigned) [87b] ; what ERβ receptor activation relative to 10 nM E2 corresponding 100 value has been reported?
stdout: 37.4

stdin: Suppose we examine the molecule Oc1ccc(CCCC2=NOC(c3ccccc3)C2)cc1 (single isomer, unassigned) [88b] ; what ERβ receptor activation relative to 10 nM E2 corresponding 100 value has been reported?
stdout: 77.1

stdin: Suppose we examine the molecule CC1(c2ccccc2)CC(CCCc2ccc(O)cc2)=NO1 (single isomer, unassigned) [90b] ; what ERβ receptor activation relative to 10 nM E2 corresponding 100 value has been reported?
stdout: 30.1

stdin: Suppose we examine the molecule Oc1ccc(CCCC2=NOC(Cc3ccc(O)cc3)C2)cc1 (single isomer, unassigned) [101a] ; what ERβ receptor activation relative to 10 nM E2 corresponding 100 value has been reported?
stdout: −0.9

stdin: Suppose we examine the molecule COc1ccc(C2=NOC(Cc3ccccc3)C2)cc1 (single isomer, unassigned) [12b] ; what ERβ receptor activation relative to 10 nM E2 corresponding 100 value has been reported?
stdout: 7.9

stdin: Suppose we examine the molecule c1ccc(CCC2=NOC(CCc3ccccc3)C2)cc1 (single isomer, unassigned) [116b, 3,5-Di-phenethyl-4,5-dihydroisoxazole] ; what ERβ receptor activation relative to 10 nM E2 corresponding 100 value has been reported?
stdout: −0.4

stdin: Suppose we examine the molecule CC1(c2ccccc2)CC(CCc2ccc(O)cc2)=NO1 (single isomer, unassigned) [87a] ; what ERβ receptor activation relative to 10 nM E2 corresponding 100 value has been reported?
stdout: 18.0

stdin: Suppose we examine the molecule c1ccc(CCC2=NOC(Cc3ccccc3)C2)cc1 (single isomer, unassigned) [109b] ; what ERβ receptor activation relative to 10 nM E2 corresponding 100 value has been reported?
stdout: 1.3
